# Tested on: A375 cells (parental)
# TEST_DETAILS: Kinase inhibitor library screening, PrestoBlue cell viability, 1 or 10 μM, 72 h
# CONDITION_LABEL: A375 Parental, 10μΜ, 72 h; in %
TEST_READOUT: cell viability, A375 Parental, 10μΜ

In [3]: df
Out[3]:
                                   compound  observed_value
0  O=C(NOCC(O)CO)c1cc(Br)c(F)c(F)c1Nc1ccc(I)cc1F (stereo not shown) [PD318088]            16.4
1  COc1cc2ncnc(Nc3cccc(Cl)c3)c2cc1OC [AG-1478 (Tyrphostin AG-1478)]            94.0
2  CN1CCN(c2ccc3nc(-c4c(N)c5c(F)cccc5[nH]c4=O)[nH]c3c2)CC1 [Dovitinib (TKI-258)]            47.2

Query for A375 cells (parental): what cell viability, A375 Parental, 10μΜ does the record show for COc1cc2c(N3CCN(C(=O)Nc4ccc(OC(C)C)cc4)CC3)ncnc2cc1OCCCN1CCCCC1 [Tandutinib (MLN518)] ? 89.7
